Just for reference, ChEMBL document CHEMBL1201862 is where these values come from.

tested on: SK-OV-3; test: NCI tumour cell line growth inhibition, 48 h
Calls of active or inactive are those of the source. Rule as the data show it: active = GI50 up to about 1.1 µM and inactive = higher.
Form field: GI50 (one value per entry).

Give GI50 for this entry on SK-OV-3: C[N+](C)(C)CC(=O)N/N=C(\C(=O)NC1=C(Cl)C(=O)c2ccccc2C1=O)C(C#N)c1csc(-c2ccc([N+](=O)[O-])cc2)n1 (centres undefined) > 100 µM (inactive)

Retrieve GI50 on SK-OV-3; query CCCC(=O)Nc1cc2c3c(c1)CCCN3CCC2 9.66 µM (inactive)

Please indicate recorded GI50 of CN(C)CCNc1ncnc2[nH]c(-c3ccc4ccccc4c3)nc12 measured with SK-OV-3. > 100 µM (inactive)

Now consider a different molecule.
For SK-OV-3, give the measured GI50 of the entry CCCCCCCC1(N=[N+]=[N-])C(=O)c2ccccc2N(C)C1=O (centres undefined) > 100 µM (inactive)

----------
test system: OVCAR-8; experiment: NCI tumour cell line growth inhibition, 48 h
The source made the active and inactive calls. Cut-off read from the data, not from the text of the source: active = GI50 up to about 1.1 µM and inactive = higher.
Form field: GI50 (one value per entry).

Before answering, review these 5 worked examples.
Report the value of GI50 obtained on OVCAR-8 for COc1cc(C(N)=O)c(OC)c(OC)c1OC . > 100 µM (inactive)

Lab note: OVCAR-8 assay, enter GI50 for O=[N+]([O-])c1ccc(NSc2ccccc2)cc1 here 19.8 µM (inactive)

Please tell me the measured GI50 for Cc1ccc(S(=O)(=O)C2c3nc4ccccc4cc3-c3nc4ccccc4nc32)cc1 (stereo not given) ; system: OVCAR-8. > 100 µM (inactive)

Report value: GI50, system: OVCAR-8, compound: COC(=O)C(C(=O)C(=O)Nc1cccc([N+](=O)[O-])c1)c1nc2ccc([N+](=O)[O-])cc2nc1O (stereo not given) > 100 µM (inactive)

Please respond with reported GI50 (system OVCAR-8) for CC(C(=O)n1ccnc1)N1c2ccccc2Sc2ccccc21 (stereo not given) . > 100 µM (inactive)

***
Provide GI50, tested on OVCAR-8, for CC(=O)OCc1cn(S(=O)(=O)c2ccc(C)cc2)cn1 . > 100 µM (inactive)

For OVCAR-8, give GI50 of the listed compound: Oc1cccc2c1[nH]c1c(C3=C[C@@]4(O)CC/C=C\CCCCN5CC[C@@H]3[C@]3(CC6/C=C\CCCCN6[C@H]34)C5)nccc12 (stereo not given in full) 1.15 µM (inactive)

Report GI50 from OVCAR-8 testing of CN1C(=O)CSC1=S > 100 µM (inactive)

Please report the measured GI50 for CN/N=C(/CC(=O)c1sc(NNC(C)=O)nc1C)C(=O)Nc1ccc(OC)cc1OC tested on OVCAR-8. > 100 µM (inactive)

Write down the reported GI50 (system: OVCAR-8) of CCOC(=O)Cn1c(C)nc2nn(Cc3ccccc3)cc2c1=O > 100 µM (inactive)

----------
GI50 overview
test system: M14; experiment: NCI tumour cell line growth inhibition, 48 h
Calls of active or inactive are those of the source. No stated cut-off is given here; in the data, active = GI50 up to about 1.1 µM and inactive = higher.

Complete the entry with GI50 for COc1cccc(-c2cc(O)c3ccccc3n2)c1 4.82 µM (inactive)

Give the reported GI50 for this compound. COc1ccc(Nc2nnc(-c3nsc4ccccc34)s2)cc1 > 100 µM (inactive)

Assign GI50 to the following record: C[C@H]1/C(=C/C(=O)OCCN(C)C)CC[C@H]2[C@H]1C(=O)C[C@H]1C(C)(C)[C@@H](O)CC[C@]21C > 100 µM (inactive)

Kindly indicate its recorded GI50. Item: N#CC(C(=O)C(=O)NCCCNC(=O)C(=O)C(C#N)c1ccccc1)c1ccccc1 (stereo not given) > 100 µM (inactive)
